These entries and their values trace back to patent US20250154115A1.

Items are presented alongside their recorded IC50.
ASSAYED SYSTEM: IP6K2 (Homo sapiens (Human))
Sequence (Q9UHH9 whole entry): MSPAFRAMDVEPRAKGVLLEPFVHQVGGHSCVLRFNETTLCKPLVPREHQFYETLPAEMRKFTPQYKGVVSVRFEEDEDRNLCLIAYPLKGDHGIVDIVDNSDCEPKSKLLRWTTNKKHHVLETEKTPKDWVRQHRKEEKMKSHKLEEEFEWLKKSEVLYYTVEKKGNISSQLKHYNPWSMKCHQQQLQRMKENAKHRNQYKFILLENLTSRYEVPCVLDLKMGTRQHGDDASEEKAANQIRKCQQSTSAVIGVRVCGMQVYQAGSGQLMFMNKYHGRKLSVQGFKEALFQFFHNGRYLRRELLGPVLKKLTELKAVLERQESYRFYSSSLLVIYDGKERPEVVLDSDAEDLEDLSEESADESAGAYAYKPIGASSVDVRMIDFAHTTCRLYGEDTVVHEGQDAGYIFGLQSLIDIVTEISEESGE
ASSAY REMARKS: Enzyme-coupled assay of IP6K2 activity (Dipp1-coupled, malachite green Pi release)
Type: biochemical
ASSAY CONDITIONS: enzyme-coupled assay; Table 2

See these solved cases before continuing.
[[record]]
molecule = "O=C(CC1CCOCC1)Nc1ccc(-c2onc3ccc(C(=O)O)cc23)cc1"
result = "1000 to 100000 nM"

[[record]]
molecule = "O=C(O)c1ccc2noc(-c3ccc(OC(F)(F)F)cc3)c2c1"
result = "100 to 1000 nM"

[[record]]
molecule = "O=C(O)c1ccc2noc(-c3cccc(NC(=O)C4CCCC4)c3)c2c1"
result = "100 to 1000 nM"


Give the measured IC50 of O=C(O)c1ccc2noc(-c3cccc(-c4ccccc4)c3)c2c1 .
100 to 1000 nM

Repeat for the following compound: CC(C)C(=O)Nc1cccc(-c2onc3ccc(C(=O)O)cc23)c1
100 to 1000 nM
